Numbers sourced from ChEMBL document CHEMBL1135364.

Target Or System: Substance-K receptor (Homo sapiens)
Sequence (P21452 whole entry): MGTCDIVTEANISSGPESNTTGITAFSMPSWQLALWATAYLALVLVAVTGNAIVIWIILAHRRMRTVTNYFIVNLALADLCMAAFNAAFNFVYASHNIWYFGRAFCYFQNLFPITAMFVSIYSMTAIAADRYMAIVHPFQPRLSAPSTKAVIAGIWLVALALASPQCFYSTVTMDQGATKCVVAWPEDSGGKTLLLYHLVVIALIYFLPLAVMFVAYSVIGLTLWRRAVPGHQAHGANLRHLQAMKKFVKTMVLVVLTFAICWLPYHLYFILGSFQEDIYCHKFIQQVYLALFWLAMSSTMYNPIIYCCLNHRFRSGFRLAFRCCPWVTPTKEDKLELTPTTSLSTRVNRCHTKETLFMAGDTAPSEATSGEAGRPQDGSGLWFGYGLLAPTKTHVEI
Protocol Summary: Binding affinity test against Neurokinin 2 (NK2) receptor
Measurement Kind: pKi
In textbook form, pKi equals minus log to base ten of the concentration in mol/L.

// solved cases for pKi follow
Compound	Meas Value
CO/N=C(\CN(C)C(=O)c1cc(C(F)(F)F)cc(C(F)(F)F)c1)C(CCN1CCC(O)(c2ccccc2)CC1)c1ccc(Cl)c(Cl)c1 (configuration not stated)	8.05
CO/N=C(\COCc1ccc2nonc2c1)C(CCN1CCC(O)(c2ccccc2)CC1)c1ccc(Cl)c(Cl)c1 (configuration not stated)	7.77
CO/N=C(\COCc1cc(Br)cc(Br)c1)C(CCN1CCC(O)(c2ccccc2)CC1)c1ccc(Cl)c(Cl)c1 (configuration not stated)	7.82
CO/N=C(\CN(C)C(=O)c1cc(Cl)cc(Cl)c1)C(CCN1CCC(O)(c2ccccc2)CC1)c1ccc(Cl)c(Cl)c1 (configuration not stated)	8.40

API: value(readout=pKi, system=Substance-K receptor (Homo sapiens)) for record CO/N=C(\COCc1ccc(C)cc1)C(CCN1CCC(O)(c2ccccc2)CC1)c1ccc(Cl)c(Cl)c1 (configuration not stated)
8.05

Recorded pKi for CO/N=C(\CN(C)Cc1cc(C(F)(F)F)cc(C(F)(F)F)c1)C(CCN1CCC(O)(c2ccccc2)CC1)c1ccc(Cl)c(Cl)c1 (configuration not stated) with Substance-K receptor (Homo sapiens), please?
7.66

Quick check: pKi on Substance-K receptor (Homo sapiens), item CO/N=C(\CN(C)C(=O)Nc1cc(C(F)(F)F)cc(C(F)(F)F)c1)C(CCN1CCC(O)(c2ccccc2)CC1)c1ccc(Cl)c(Cl)c1 (configuration not stated) ?
8.10
